- System: CD8F1 mice, subcutaneous mammary adenocarcinoma, T/C%
- test.protocol: NCI In Vivo Anticancer Drug Screen. Data for tumor model Mammary Adenocarcinoma CD8F1 (subcutaneous) in CD8F1
- experimental.conditions: endpoint: median tumor weight (est.); dose: 12.5 mg/kg/injection; schedule: Q07DX005 (ip); vehicle: saline with Tween-80; higher = larger tumour
Results filed as inconclusive are left out.
measurement.name: T/C

CCCCCCCCCCCCCCCCCC(=O)Nc1ccn(C2OC(CO)C(O)C2O)c(=O)n1 (stereo not drawn); 98 % of control

**Query** T/C for CCOC(=O)C(C)(C)Oc1ccc(Cl)cc1 ?
**Result** 61 % of control

**Query** And what about the molecule Cc1c2cc(Cl)c3ccccc3c2c[n+]2ccccc12 ?
**Result** 52 % of control

**Query** And what about the molecule C(COCCOCC1CO1)OCCOCC1CO1 (stereo not drawn) ?
**Result** 69 % of control

**Query** And what about the molecule C[Si](C)(C)n1nnn(-c2ccccc2)c1=O ?
**Result** 79 % of control

**Query** And what about the molecule OC1CCCC2CCCNC12 (stereo not drawn) ?
**Result** 102 % of control

**Query** And what about the molecule Cc1cn(C2CC3[O][Sn]([c]4ccccc4)([c]4ccccc4)[O]CC3O2)c(=O)[nH]c1=O (stereo not drawn) ?
**Result** 73 % of control

**Query** And what about the molecule CCC[P+](c1ccccc1)(c1ccccc1)c1ccccc1 ?
**Result** 73 % of control

**Query** And what about the molecule CCOC(=O)[C@]1(Br)CC[C@@]1(Br)C(=O)OCC ?
**Result** 117 % of control

**Query** And what about the molecule CSc1ccc2c(c1)C(N1CCN(C)CC1)Cc1ccccc1S2 (stereo not drawn) ?
**Result** 63 % of control

**Query** And what about the molecule CCCCOC(=O)/C=C(\Br)C(=O)OCCCC ?
**Result** 115 % of control

**Query** And what about the molecule NC(N)=NC(N)=Nc1ccc(-c2ccc(N=C(N)N=C(N)N)cc2)cc1 ?
**Result** 156 % of control

**Query** And what about the molecule Cc1cc(N(CC(C)Br)CC(C)Br)ccc1N=Nc1ccccc1C(=O)O (stereo not drawn) ?
**Result** 47 % of control

**Query** And what about the molecule CC(=O)Nc1ccc(C(=O)C=O)cc1 ?
**Result** 114 % of control

**Query** And what about the molecule C1CN2CCC1CC2 ?
**Result** 77 % of control

**Query** And what about the molecule c1ccc2c(c1)nnn1c3cnccc3nc21 ?
**Result** 105 % of control

**Query** And what about the molecule OCCOCC(F)(F)F ?
**Result** 57 % of control

**Query** And what about the molecule COc1ccc([I+]c2cccc(Cl)c2)cc1Cl ?
**Result** 34 % of control

---

- System: CD8F1 mice, subcutaneous mammary adenocarcinoma, T/C%
- test.protocol: NCI In Vivo Anticancer Drug Screen. Data for tumor model Mammary Adenocarcinoma CD8F1 (subcutaneous) in CD8F1
- experimental.conditions: endpoint: median tumor weight (est.); dose: 3.12 mg/kg/injection; schedule: Q07DX005 (ip); vehicle: saline with Tween-80; higher = larger tumour
Inconclusive results are not listed.
measurement.name: T/C

Cc1cc(NCCCCCCCNc2cc(C)nc3cc(N)ccc23)c2ccc(N)cc2n1; 89 % of control
CO[C@H]1C[C@@H]2CC[C@@H](C)[C@@](O)(O2)C(=O)C(=O)N2CCCC[C@H]2C(=O)O[C@H]([C@H](C)C[C@@H]2CC[C@@H](O)[C@H](OC)C2)CC(=O)[C@H](C)C=C(C)[C@@H](O)[C@@H](OC)C(=O)[C@H](C)C[C@H](C)/C=C/C=C/C=C1C; 54 % of control
C/C(=N/NC(N)=S)c1ccc2ccccc2c1; 152 % of control
C=CC(=O)N1CN(C(=O)C=C)CN(C(=O)C=C)C1; 89 % of control
Cc1cc(N(CC(C)Br)CC(C)Br)ccc1N=Nc1ccccc1C(=O)O (stereo unspecified); 94 % of control

**Query** Value wanted: T/C (CD8F1 mice, subcutaneous mammary adenocarcinoma, T/C%) of entry O=c1s[se]c2ccccc12
**Result** 86 % of control
